system: DU-145; assay: Cytotoxicity against human DU145 cells at 100 uM after 2 days by sulforhodamine B assay; assay type: functional; details: DU-145, 48 h
# binarize inhibition at 100 µM: threshold 80% inclusive, high side Criterion met, low side Criterion not met

INSERT INTO results (smiles_input, label_value) VALUES
  ('COc1cccc(Cc2nc3c(-c4ccc(Cl)cc4)n[nH]c3c(=O)n2NC(=O)c2ccccc2)c1', 'Criterion met'),
  ('O=C(Nn1c(-c2cccc([N+](=O)[O-])c2)nc2c(-c3ccc(F)cc3)n[nH]c2c1=O)c1ccccc1', 'Criterion met'),
  ('O=C(Nn1c(-c2cccc([N+](=O)[O-])c2)nc2c(CCc3ccccc3)n[nH]c2c1=O)c1cccnc1', 'Criterion not met'),
  ('CCCc1n[nH]c2c(=O)n(NC(=O)c3ccccc3)c(-c3cccc([N+](=O)[O-])c3)nc12', 'Criterion not met'),
  ('CCCc1n[nH]c2c(=O)n(NC(=O)c3ccncc3)c(-c3cccc(OC)c3)nc12', 'Criterion not met');

We now examine a further molecule.
# check: inhibition at 100 µM of "O=C(Nn1c(-c2ccccc2)nc2c(-c3ccc(Cl)cc3)n[nH]c2c1=O)c1ccccc1" is greater than or equal to 80% Criterion met

Entry source: ChEMBL document CHEMBL1154962
